All figures here come from the supplement of paper PMC10126150.

Test system: ATP;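 note: ATP exposure 15 min at 22 °C before imaging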
Test description: switch fluorescence ratio, 500 uM ATP over buffer (Cy3 cluster intensity, sum of 5 cycles each) (fold (ratio)); higher = stronger signal-on switching upon ATP binding; sequences stand for … in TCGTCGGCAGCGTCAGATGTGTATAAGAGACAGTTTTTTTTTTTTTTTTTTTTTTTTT…TC
Condition label: aptamer strand: ATP DNA aptamer (quencher-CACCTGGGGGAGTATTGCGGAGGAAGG + anchor), 100 nM annealed; ATP concentration: 500 uM
Result type: switch fluorescence ratio
# respond with the number and nothing more

ATTCAGGGGG	1.07
CAGTGGGGGC	1.05
AGGTAGTGTG	0.989
CGTCTAGACT	1.02

Specify switch fluorescence ratio for CGGAAATGAA and stop.
0.982

Specify switch fluorescence ratio for TACGATGCGG and stop.
1.07

Specify switch fluorescence ratio for TTTGTGTGGG and stop.
1.03

Specify switch fluorescence ratio for AAACAGCGTA and stop.
1.01

Specify switch fluorescence ratio for TTTGAAAAGC and stop.
0.986

Specify switch fluorescence ratio for CGGCTGTGCT and stop.
1

Specify switch fluorescence ratio for TCCTTTAGGT and stop.
0.993

Specify switch fluorescence ratio for GGTAGATGTC and stop.
1.01

Specify switch fluorescence ratio for GGATGATGGT and stop.
0.985

Specify switch fluorescence ratio for GAGGAGAGGT and stop.
1

Specify switch fluorescence ratio for CCAGGGGCGT and stop.
1.39

Specify switch fluorescence ratio for CAAGCGGGGG and stop.
1.01

Specify switch fluorescence ratio for TAGATTCTGA and stop.
1.01

Specify switch fluorescence ratio for GCGAGGGGCG and stop.
1

Specify switch fluorescence ratio for GGGTACGTGG and stop.
1

Specify switch fluorescence ratio for GGGAAAAAGG and stop.
0.983

###

Test system: ATP;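 note: ATP exposure 15 min at 22 °C before imaging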
Test description: switch fluorescence ratio, 500 uM ATP over buffer (Cy3 cluster intensity, sum of 5 cycles each) (fold (ratio)); higher = stronger signal-on switching upon ATP binding; sequences stand for … in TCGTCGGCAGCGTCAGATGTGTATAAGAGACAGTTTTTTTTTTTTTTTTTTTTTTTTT…TC
Condition label: aptamer strand: ATP DNA aptamer (quencher-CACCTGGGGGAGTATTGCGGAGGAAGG + anchor), 100 nM annealed; ATP concentration: 500 uM
Result type: switch fluorescence ratio
# respond with the number and nothing more

Use these answered entries as a reference point.
AATTTCAAGT	1
CCGAAATGGG	1.5
AACAATATTG	1.02
ACTTAGTCTA	1.02
TACTTGAGTT	1.05
TTGCAAAACT	1.32

Specify switch fluorescence ratio for TATCCAAGTT and stop.
0.999

Specify switch fluorescence ratio for CGTCGGTTTG and stop.
0.993

Specify switch fluorescence ratio for ACCACCGTTG and stop.
1.11

###

System: ATP;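 note: ATP exposure 15 min at 22 °C before imaging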
Test description: switch fluorescence ratio, 500 uM ATP over buffer (Cy3 cluster intensity, sum of 5 cycles each) (fold (ratio)); higher = stronger signal-on switching upon ATP binding; sequences stand for … in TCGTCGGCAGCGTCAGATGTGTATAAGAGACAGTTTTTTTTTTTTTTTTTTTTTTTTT…TC
Condition label: aptamer strand: ATP DNA aptamer (quencher-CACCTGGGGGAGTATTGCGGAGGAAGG + anchor), 100 nM annealed; ATP concentration: 500 uM
Below: a set of entries, each annotated with reported switch fluorescence ratio.
# respond with the number and nothing more

Use these answered entries as a reference point.
AGGGTAAAAG	1.03
CGTTAATCGT	1.01
TTCTCTAATG	1.03
TAGATTGACC	1.04
GGGAGGACTT	0.977

Fill: switch fluorescence ratio (ATP) for this sequence TGGTCTTTTT
0.995
